molecular target: Procathepsin L (Homo sapiens) (UniProt P07711); experiment: Inhibition of human recombinant cathepsin L expressed in Escherichia coli assessed as formation of fluorescent degradation product AMC using Z-Phe-Arg-AMC as substrate at 50 uM by fluorescence microplate assay
Sequence (P07711 114-333 limits assumed): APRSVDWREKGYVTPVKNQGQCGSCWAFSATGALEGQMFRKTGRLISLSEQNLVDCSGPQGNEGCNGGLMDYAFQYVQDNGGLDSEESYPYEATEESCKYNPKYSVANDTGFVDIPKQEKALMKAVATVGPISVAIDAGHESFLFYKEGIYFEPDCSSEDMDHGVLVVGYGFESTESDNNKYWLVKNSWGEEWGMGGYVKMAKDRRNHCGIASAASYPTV
reportedMetric: inhibition (%)

For orientation, consider the following solved cases.
Inquiry: Can you share its inhibition? I mean this molecule: "O=c1nc(SCc2ccccc2)nc(S)[nH]1"
Reply text: 3.79

Inquiry: Entry "C[C@@H](NC(=O)c1ccccc1Nc1nc(Cl)nc(Cl)n1)C(=O)O" please
Reply text: -5.15

Inquiry: Can you handle "N#CCSc1nc(SCc2ccccc2)nc(=O)[nH]1" next?
Reply text: -5.28

Inquiry: Then this molecule: "O=c1nc(-c2cccc([N+](=O)[O-])c2)nc(S)[nH]1"
Reply text: 7.7

Inquiry: Param item: "COC(=O)c1ccccc1Oc1nc(OC)nc(OC)n1"
Reply text: -9.64

[I] COc1nc(Nc2ccccc2C(=O)O)nc(OC)n1
[II] CCCCSc1nc(SCc2ccccc2)nc(=O)[nH]1
[III] COc1ccccc1CSc1nc(SCc2ccccc2)nc(=O)[nH]1
Inquiry: Arrange by inhibition, high to low. Answer by writing out the labels in the requested order.
Reply text: III, II, I
(III: 61.3%, II: 9.33%, I: -3.14%)

[P] COC(=O)c1ccccc1Nc1nc(Cl)nc(Cl)n1
[Q] O=c1nc(SCc2ccccc2)nc(SCc2ccc(Cl)cc2)[nH]1
Inquiry: Field: lower recorded inhibition (choose P or Q ) Selection: enter the item's label.
Reply text: P
(P: 8.76%, Q: 85.2%)

Just for reference, ChEMBL document CHEMBL1833856 is where these values come from.
